# IC50 per record follows
- MEASURED ON: DRB1*0404 (Homo sapiens, UniProt P01903+P01911, A100R/A169T/F76Y/I96L/K127E/L162R/M171V/N62H/P40V/Q125Y/R42H/S133A/S149N/S66Y/V209L/W38E)
- ASSAY PROTOCOL: biochemical
- Format: binding
- EXPERIMENTAL CONTEXT: IC50 nM to purified HLA DRB1*0404
The reply should be a number in nM, with the unit left off.

COMPOUND	READOUT	TEST RESULT
CC[C@H](C)[C@H](NC(=O)[C@H](CCC(=O)O)NC(=O)[C@H](CC(=O)O)NC(=O)[C@H](CC(C)C)NC(=O)[C@H](CCC(=O)O)NC(=O)[C@@H](NC(=O)[C@H](Cc1c[nH]c2ccccc12)NC(=O)[C@@H](NC(=O)[C@@H](N)CO)[C@@H](C)CC)[C@@H](C)CC)C(=O)NCC(=O)N[C@@H](CCC(=O)O)C(=O)N[C@@H](CC(=O)O)C(=O)N[C@H](C(=O)N[C@@H](C)C(=O)N1CCC[C@H]1C(=O)O)C(C)C [Flu.PA.423]	IC50	7610

Next compound, IC50 to be filled in.
Asked: May I ask what IC50 has been recorded for CC[C@H](C)[C@H](NC(=O)[C@H](CC(C)C)NC(=O)[C@H](Cc1ccccc1)NC(=O)CNC(=O)[C@H](CCCNC(=N)N)NC(=O)[C@H](CC(C)C)NC(=O)[C@@H](NC(=O)[C@H](C)NC(=O)[C@H](CO)NC(=O)[C@@H](N)CCC(=O)O)C(C)C)C(=O)N[C@@H](CC(C)C)C(=O)NCC(=O)N[C@@H](CCCCN)C(=O)N[C@@H](CCC(=O)O)C(=O)N[C@@H](CC(=O)O)C(=O)O [Flu.PB2.690] ?
Given back: 110

---

# IC50 per record follows
- MEASURED ON: DRB1*0404 (Homo sapiens, UniProt P01903+P01911, A100R/A169T/F76Y/I96L/K127E/L162R/M171V/N62H/P40V/Q125Y/R42H/S133A/S149N/S66Y/V209L/W38E)
- ASSAY PROTOCOL: biochemical
- Assay type: binding
- EXPERIMENTAL CONTEXT: IC50 nM to purified HLA DRB1*0404
The reply should be a number in nM, with the unit left off.

Field: example entries. Status: answers known.
MOLECULE	IC50 [nM]
CC[C@H](C)[C@H](NC(=O)[C@H](CCC(=O)O)NC(=O)CNC(=O)[C@@H](N)C(C)C)C(=O)N[C@@H](CO)C(=O)N1CCC[C@H]1C(=O)N[C@@H](CC(C)C)C(=O)N1CCC[C@H]1C(=O)N[C@@H](CO)C(=O)N[C@@H](CC(C)C)C(=O)N1CCC[C@H]1C(=O)NCC(=O)N[C@@H](Cc1c[nH]cn1)C(=O)N[C@H](C(=O)N[C@@H](CC(=O)O)C(=O)O)[C@@H](C)O [Flu.NS1.160]	8.5
CC(C)C[C@H](NC(=O)[C@H](CO)NC(=O)[C@H](CCCNC(=N)N)NC(=O)[C@H](CC(C)C)NC(=O)[C@H](CCC(=O)O)NC(=O)[C@@H]1CCCN1C(=O)[C@H](CCC(=O)O)NC(=O)[C@H](CC(=O)O)NC(=O)[C@H](CO)NC(=O)[C@H](CC(=O)O)NC(=O)[C@H](Cc1ccc(O)cc1)NC(=O)[C@H](CCC(N)=O)NC(=O)[C@H](CCCCN)NC(=O)[C@@H](N)CC(C)C)C(=O)N[C@@H](CO)C(=O)O [Flu.PA.393]	5800

Next molecule, IC50 to be filled in.
Asked: May I ask what IC50 has been recorded for CC[C@H](C)[C@H](NC(=O)CNC(=O)[C@H](CO)NC(=O)[C@@H](NC(=O)CNC(=O)[C@H](Cc1ccccc1)NC(=O)[C@H](CO)NC(=O)[C@@H]1CCCN1C(=O)[C@@H](N)CC(C)C)C(C)C)C(=O)N[C@@H](CC(N)=O)C(=O)N[C@@H](CCC(=O)O)C(=O)N[C@@H](CO)C(=O)N[C@@H](C)C(=O)N[C@@H](CC(=O)O)C(=O)N[C@@H](CCSC)C(=O)O [Flu.PB1.512] ?
Given back: 39
